EC50 listing for selected binders.
MEASUREMENT_TARGET: T1, human CD47 on cells (SHP-77 tumor cells, human red blood cells, CCRF-CEM cells, human CD47 CHO-K1 stable cell … (human, UniProt Q08722 19-323))
T1 construct: whole, on cells; also called RBC
EXPERIMENTAL_DETAILS: flow cytometry on human RBCs;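 also: antibody binding measured by flow cytometry as geometric mean fluorescence intensity over a range of antibody concentrations, with EC50 and maximum taken from a sigmoidal dose-response fit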
The response must be a number in nM with no trailing unit.

BINDER	UNITS_SYMBOL	EC50
108VH10.Mq / 108VL10.Me (antibody, V domains shown, 4D5-framework series; constant regions not restated for this series; also called VH10.Mq VL10.Me) VH: EVQLVESGGGLVQPGGSLRLSCAASGFTFSHHWIHWVRQAPGKGLEWVAMIDASDSETRLSDSVKGRFTISADTSKNTAYLQMNSLRAEDTAVYYCSRLGRYYFDYWGQGTLVTVSS VL: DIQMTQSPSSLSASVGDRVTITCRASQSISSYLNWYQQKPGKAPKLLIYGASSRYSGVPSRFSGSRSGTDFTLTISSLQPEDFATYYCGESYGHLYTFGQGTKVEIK	nM	3.9
108VH5.M11 / 108VL1.M5 (antibody, human IgG4 S228P, kappa, V domains shown, Full-length IgG4 (S228P), kappa; also called VH5.M11 VL1.M5) VH: EVQLVQSGAEVKKPGASVKVSCKASGYTFTHHYIHWVRQAPGQGLEWMGMIDASDSETRYAQKFQGRVTMTRDTSTSTVYMELSSLRSEDTAVYYCARLGRYYFDYWGQGTLVTVSS VL: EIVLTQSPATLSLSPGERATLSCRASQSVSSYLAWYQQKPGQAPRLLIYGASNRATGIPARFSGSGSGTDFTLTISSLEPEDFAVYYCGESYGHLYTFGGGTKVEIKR	nM	178

--- query ---
In: What value of measured EC50 is listed for 108VH5.M6 / 108VL1.M5 (antibody, human IgG4 S228P, kappa, V domains shown, Full-length IgG4 (S228P), kappa; also called VH5.M6 VL1.M5) VH: EVQLVQSGAEVKKPGASVKVSCKASGYTFTHHYMHWVRQAPGQGLEWMGMIDASDSETRLSQKFKDRVTMTRDTSTSTVYMELSSLRSEDTAVYYCARLGRYYFDYWGQGTLVTVSS VL: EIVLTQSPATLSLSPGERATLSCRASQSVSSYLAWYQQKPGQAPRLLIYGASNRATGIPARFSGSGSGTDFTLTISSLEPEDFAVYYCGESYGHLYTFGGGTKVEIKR ?
Out: 11.1
